- system_tested: T1, talin-1 head domain (THD1) (UniProt P26039 1-405)
- T1 construct: talin-1 (TLN1) head domain (THD), residues 1-405; murine TLN1 cDNA is named only for the cell lines; also called WT; source: E. coli (DE3) Rosetta 2, purified (IMAC, SEC); not shown: His10-SUMO, N-terminal, cleaved
- method: MST; unlabelled protein titrated to 50-200 nM ATTO 488-labelled β-CT peptide, no third protein; 20 mM Tris pH 7.5, 200 mM NaCl, 1 mM TCEP, 0.05% Tween-20; Kd of individual titrations (in S0002 mean and sd, n = 2)
- measurement_parameters: both partners purified
No end group written: not given here.
value_type: pKd
One number for each entry, as −log10 of the molar value.

# binder {ATTO 488}-HDRREFAKFEKEKMNAKWDTGENPIYKSAVTTVVNPKYEGK (peptide, UniProt P09055-1 758-798, looked up, integrin β1A cytoplasmic tail (β1-CT), residues 758-798; the limits 758-798 are stated for the recombinant β1-CT; also called β1A-CT; source: synthetic peptide (MPIB Core Facility)) [ATTO 488-labeled integrin β1 cytoplasmic tail (488–β1-CT)] ; its pKd = 3.82
